Test system: Escherichia coli TOP10;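 note: peptides expressed intracellularly from a pBAD plasmid library in pooled LB shake-flask culture, induced with 0.3% L-arabinose, DNA abundance read by NGS, three biological replicates, DESeq2 with apeglm shrinkage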
Measurement Description: shrunken log2 fold change of peptide-encoding DNA abundance (4.5 h post-induction vs induction); higher = less antimicrobial activity (less host growth inhibition)
Assay Conditions: time post-induction: 4.5 h; library: site-saturation at positions 5, 18, 19, 20
Would you mind labelling by shrunken log2 fold change? At or over -0.01 is fulfilled, under is not fulfilled.

(Q) Is shrunken log2 fold change for RRIRPRPPRLPRPRPRPYDQPRP at or above -0.01?
(A) not fulfilled

(Q) Then RRIRWRPPRLPRPRPRPTKGPRP ?
(A) fulfilled

(Q) Then this sequence: RRIRTRPPRLPRPRPRPDNEPRP
(A) not fulfilled

(Q) Can you check RRIRYRPPRLPRPRPRPEHLPRP next?
(A) not fulfilled

(Q) Also, RRIRARPPRLPRPRPRPGVLPRP please.
(A) fulfilled

(Q) Now give it for RRIRMRPPRLPRPRPRPSFTPRP too.
(A) not fulfilled

(Q) Try this sequence next: RRIRHRPPRLPRPRPRPECEPRP
(A) fulfilled

(Q) For RRIRHRPPRLPRPRPRPPLEPRP then?
(A) fulfilled

(Q) Also, RRIRYRPPRLPRPRPRPWHRPRP please.
(A) not fulfilled

(Q) Another sequence to look at: RRIRIRPPRLPRPRPRPGDWPRP
(A) fulfilled

(Q) Query RRIRSRPPRLPRPRPRPCKTPRP next
(A) fulfilled

(Q) Another: RRIRIRPPRLPRPRPRPITNPRP
(A) not fulfilled

(Q) Also, RRIRHRPPRLPRPRPRPADAPRP please.
(A) not fulfilled

(Q) Same question for RRIRERPPRLPRPRPRPASGPRP please.
(A) fulfilled

(Q) Now give it for RRIRNRPPRLPRPRPRPCPNPRP too.
(A) not fulfilled

The origin of these recorded values is the supplement of paper PMC9112550.
